# Test System: hCRTH2 (Homo sapiens, UniProt Q9Y5Y4)
# Construct: expressed in transfected cells; host or cells: HEK (human embryonic kidney) cells expressing hCRTH2; membrane preparation
# Sequence (Q9Y5Y4 whole entry): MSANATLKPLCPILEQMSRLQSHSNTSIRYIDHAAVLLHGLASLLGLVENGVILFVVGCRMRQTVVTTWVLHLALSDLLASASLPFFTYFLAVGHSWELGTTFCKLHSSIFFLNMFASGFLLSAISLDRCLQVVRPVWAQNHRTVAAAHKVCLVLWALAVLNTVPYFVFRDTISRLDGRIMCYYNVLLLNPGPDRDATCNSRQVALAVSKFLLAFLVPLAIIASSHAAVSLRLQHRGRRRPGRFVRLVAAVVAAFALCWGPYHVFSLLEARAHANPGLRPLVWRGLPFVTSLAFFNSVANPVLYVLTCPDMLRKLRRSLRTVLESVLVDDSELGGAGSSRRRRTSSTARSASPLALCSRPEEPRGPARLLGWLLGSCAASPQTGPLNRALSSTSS
# Assay Summary: Radioligand binding assay ([3H]PGD2 competition, HEK-hCRTH2 membranes)
# Experimental Context: [3H]PGD2 binding, rated A-E (Table A)
pKi: −log10 of the molar value.
Item-by-item account of pKi

C[C@@H]1CN(c2ccc(F)cc2)CCN1C(=O)c1ccc2nc(-c3ccccc3)c(NCCCC(=O)O)nc2c1	7.70 to 8.68

For CC(NC(=O)c1ccc2nc(-c3ccc(C(F)(F)F)cc3)c(CCCCC(=O)O)nc2c1)c1ccc(-c2ccccc2)cc1 (racemic) [4E] , what is its reported pKi?
8.70 to 10.00

# repeat for "C[C@@H](NC(=O)c1ccc2nc(-c3ccc(Cl)cc3)c(CCCCC(=O)O)nc2c1)c1cccnc1"
7.70 to 8.68

# repeat for C[C@@H](NC(=O)c1ccc2nc(-c3ccccc3)c(CCCCC(=O)O)nc2c1)c1ccc(F)cc1 [compound 234]
7.70 to 8.68

# repeat for O=C(O)CCCCc1nc2cc(C(=O)N[C@@H](c3ccccc3)C(F)(F)F)ccc2nc1-c1ccc(Cl)cc1 [16i]
8.70 to 10.00
